tested on: Acinetobacter baumannii FADDI-AB030; assay: microbe, parasite or virus in culture; type: cell-based; settings: FADDI-AB030
Where a SMILES comes first, the peptide text is derived from it. Bridges are numbered along the chain shown (N, C = ends). [ ]: non-standard residue; d: D form. The star is where a group is joined. X24 = O=C(c1cccc(C(F)(F)F)n1)*; X1 = O=C(c1ncc(Cl)cc1Cl)*; X50 = O=C(c1sc(Br)cc1Br)*; X29 = O=C(c1cc(Cl)ccn1)*; X59 = Cn1c(Br)ccc1C(=O)*; X7 = O=C(c1nc2ccccc2o1)*; Dab = NCC[C@H](N)C(=O)O; Abu = CC[C@H](N)C(=O)O; Dap = NC[C@H](N)C(=O)O
# Minimum inhibitory concentration listing for each entry below

| molecule | target desc | unit tag | Minimum inhibitory concentration |
| --- | --- | --- | --- |
| CC(C)C[C@H]1NC(=O)[C@H](CCN)NC(=O)[C@@H](NC(=O)[C@H](CN)NC(=O)[C@@H](NC(=O)[C@H](CCN)NC(=O)c2cc(Cl)ccn2)[C@@H](C)O)CCNC(=O)[C@H]([C@@H](C)O)NC(=O)[C@H](CCN)NC(=O)[C@H](CCN)NC(=O)[C@H](C)NC1=O [Compound 97] (X29-[Dab]T[Dap][Dab][Dab][dL]A[Dab][Dab]T; lactam 4-C) | Acinetobacter baumannii FADDI-AB030 | mg/L | 2 |
| CC(C)C[C@H]1NC(=O)[C@H](CCN)NC(=O)[C@@H](NC(=O)[C@H](CN)NC(=O)[C@@H](NC(=O)[C@H](CCN)NC(=O)c2sc(Br)cc2Br)[C@@H](C)O)CCNC(=O)[C@H]([C@@H](C)O)NC(=O)[C@H](CCN)NC(=O)[C@H](CCN)NC(=O)[C@H](C)NC1=O [Compound 99] (X50-[Dab]T[Dap][Dab][Dab][dL]A[Dab][Dab]T; lactam 4-C) | Acinetobacter baumannii FADDI-AB030 | mg/L | 0.5 |
| CC[C@@H]1NC(=O)[C@@H](CC(C)C)NC(=O)[C@H](CCN)NC(=O)[C@@H](NC(=O)[C@H](CN)NC(=O)[C@@H](NC(=O)[C@H](CCN)NC(=O)c2cccc(C(F)(F)F)n2)[C@@H](C)O)CCNC(=O)[C@H]([C@@H](C)O)NC(=O)[C@H](CCN)NC(=O)[C@H](CCN)NC1=O [Compound 44] (X24-[Dab]T[Dap][Dab][Dab][dL][Abu][Dab][Dab]T; lactam 4-C) | Acinetobacter baumannii FADDI-AB030 | mg/L | 1 |
| CC[C@@H]1NC(=O)[C@@H](CC(C)C)NC(=O)[C@H](CCN)NC(=O)[C@@H](NC(=O)[C@H](CN)NC(=O)[C@@H](NC(=O)[C@H](CCN)NC(=O)c2ccc(Br)n2C)[C@@H](C)O)CCNC(=O)[C@H]([C@@H](C)O)NC(=O)[C@H](CCN)NC(=O)[C@H](CCN)NC1=O [Compound 93] (X59-[Dab]T[Dap][Dab][Dab][dL][Abu][Dab][Dab]T; lactam 4-C; N-terminus assumed) | Acinetobacter baumannii FADDI-AB030 | mg/L | 0.5 |
| CC[C@@H]1NC(=O)[C@@H](CC(C)C)NC(=O)[C@H](CCN)NC(=O)[C@@H](NC(=O)[C@H](CN)NC(=O)[C@@H](NC(=O)[C@H](CCN)NC(=O)c2ncc(Cl)cc2Cl)[C@@H](C)O)CCNC(=O)[C@H]([C@@H](C)O)NC(=O)[C@H](CCN)NC(=O)[C@H](CCN)NC1=O [Compound 1] (X1-[Dab]T[Dap][Dab][Dab][dL][Abu][Dab][Dab]T; lactam 4-C) | Acinetobacter baumannii FADDI-AB030 | mg/L | 1 |
| CC[C@@H]1NC(=O)[C@@H](CC(C)C)NC(=O)[C@H](CCN)NC(=O)[C@@H](NC(=O)[C@H](CN)NC(=O)[C@@H](NC(=O)[C@H](CCN)NC(=O)c2nc3ccccc3o2)[C@@H](C)O)CCNC(=O)[C@H]([C@@H](C)O)NC(=O)[C@H](CCN)NC(=O)[C@H](CCN)NC1=O [Compound 74] (X7-[Dab]T[Dap][Dab][Dab][dL][Abu][Dab][Dab]T; lactam 4-C) | Acinetobacter baumannii FADDI-AB030 | mg/L | 0.5 |

This collection of values is drawn from patent US11225505B2.
